# System: Escherichia coli TOP10
# PROTOCOL: shrunken log2 fold change of peptide-encoding DNA abundance (4.5 h post-induction vs induction); higher = less antimicrobial activity (less host growth inhibition)
# SETUP_CONDITIONS: time post-induction: 4.5 h; library: site-saturation at positions 5, 18, 19, 20
PARAMETER_MEASURED: shrunken log2 fold change

>  <SEQUENCE_ENTRY>
RRIRSRPPRLPRPRPRPAFFPRP

>  <EXPERIMENTAL_TARGET>
Escherichia coli TOP10

>  <PARAMETER_MEASURED>
shrunken log2 fold change

>  <MEASURED_VALUE>
0.328

$$$$
>  <SEQUENCE_ENTRY>
RRIRMRPPRLPRPRPRPNSTPRP

>  <EXPERIMENTAL_TARGET>
Escherichia coli TOP10

>  <PARAMETER_MEASURED>
shrunken log2 fold change

>  <MEASURED_VALUE>
0.0221

$$$$
>  <SEQUENCE_ENTRY>
RRIRSRPPRLPRPRPRPNMHPRP

>  <EXPERIMENTAL_TARGET>
Escherichia coli TOP10

>  <PARAMETER_MEASURED>
shrunken log2 fold change

>  <MEASURED_VALUE>
-0.257

$$$$
>  <SEQUENCE_ENTRY>
RRIRCRPPRLPRPRPRPNKWPRP

>  <EXPERIMENTAL_TARGET>
Escherichia coli TOP10

>  <PARAMETER_MEASURED>
shrunken log2 fold change

>  <MEASURED_VALUE>
-0.00442

$$$$
>  <SEQUENCE_ENTRY>
RRIRMRPPRLPRPRPRPCTNPRP

>  <EXPERIMENTAL_TARGET>
Escherichia coli TOP10

>  <PARAMETER_MEASURED>
shrunken log2 fold change

>  <MEASURED_VALUE>
0.0685

$$$$
>  <SEQUENCE_ENTRY>
RRIRYRPPRLPRPRPRPHCKPRP

>  <EXPERIMENTAL_TARGET>
Escherichia coli TOP10

>  <PARAMETER_MEASURED>
shrunken log2 fold change

>  <MEASURED_VALUE>
-0.11

$$$$
>  <SEQUENCE_ENTRY>
RRIRYRPPRLPRPRPRPINTPRP

>  <EXPERIMENTAL_TARGET>
Escherichia coli TOP10

>  <PARAMETER_MEASURED>
shrunken log2 fold change

>  <MEASURED_VALUE>
-0.274

$$$$
>  <SEQUENCE_ENTRY>
RRIRKRPPRLPRPRPRPIPPPRP

>  <EXPERIMENTAL_TARGET>
Escherichia coli TOP10

>  <PARAMETER_MEASURED>
shrunken log2 fold change

>  <MEASURED_VALUE>
0.385

$$$$
>  <SEQUENCE_ENTRY>
RRIRTRPPRLPRPRPRPERYPRP

>  <EXPERIMENTAL_TARGET>
Escherichia coli TOP10

>  <PARAMETER_MEASURED>
shrunken log2 fold change

>  <MEASURED_VALUE>
0.0845

$$$$
>  <SEQUENCE_ENTRY>
RRIRKRPPRLPRPRPRPNHIPRP

>  <EXPERIMENTAL_TARGET>
Escherichia coli TOP10

>  <PARAMETER_MEASURED>
shrunken log2 fold change

>  <MEASURED_VALUE>
-0.358

$$$$
>  <SEQUENCE_ENTRY>
RRIRIRPPRLPRPRPRPVAAPRP

>  <EXPERIMENTAL_TARGET>
Escherichia coli TOP10

>  <PARAMETER_MEASURED>
shrunken log2 fold change

>  <MEASURED_VALUE>
0.176

$$$$
>  <SEQUENCE_ENTRY>
RRIRHRPPRLPRPRPRPYKCPRP

>  <EXPERIMENTAL_TARGET>
Escherichia coli TOP10

>  <PARAMETER_MEASURED>
shrunken log2 fold change

>  <MEASURED_VALUE>
-0.0105

$$$$
>  <SEQUENCE_ENTRY>
RRIRQRPPRLPRPRPRPAKSPRP

>  <EXPERIMENTAL_TARGET>
Escherichia coli TOP10

>  <PARAMETER_MEASURED>
shrunken log2 fold change

>  <MEASURED_VALUE>
-0.0281

$$$$
>  <SEQUENCE_ENTRY>
RRIRVRPPRLPRPRPRPCQMPRP

>  <EXPERIMENTAL_TARGET>
Escherichia coli TOP10

>  <PARAMETER_MEASURED>
shrunken log2 fold change

>  <MEASURED_VALUE>
-0.486

$$$$
>  <SEQUENCE_ENTRY>
RRIRIRPPRLPRPRPRPTLAPRP

>  <EXPERIMENTAL_TARGET>
Escherichia coli TOP10

>  <PARAMETER_MEASURED>
shrunken log2 fold change

>  <MEASURED_VALUE>
0.236

$$$$
>  <SEQUENCE_ENTRY>
RRIRPRPPRLPRPRPRPNSCPRP

>  <EXPERIMENTAL_TARGET>
Escherichia coli TOP10

>  <PARAMETER_MEASURED>
shrunken log2 fold change

>  <MEASURED_VALUE>
-0.241

$$$$
>  <SEQUENCE_ENTRY>
RRIRLRPPRLPRPRPRPDIWPRP

>  <EXPERIMENTAL_TARGET>
Escherichia coli TOP10

>  <PARAMETER_MEASURED>
shrunken log2 fold change

>  <MEASURED_VALUE>
-0.137

$$$$
>  <SEQUENCE_ENTRY>
RRIRQRPPRLPRPRPRPDIHPRP

>  <EXPERIMENTAL_TARGET>
Escherichia coli TOP10

>  <PARAMETER_MEASURED>
shrunken log2 fold change

>  <MEASURED_VALUE>
-0.0439

$$$$
>  <SEQUENCE_ENTRY>
RRIRDRPPRLPRPRPRPQCVPRP

>  <EXPERIMENTAL_TARGET>
Escherichia coli TOP10

>  <PARAMETER_MEASURED>
shrunken log2 fold change

>  <MEASURED_VALUE>
0.0602

$$$$
>  <SEQUENCE_ENTRY>
RRIRCRPPRLPRPRPRPLRCPRP

>  <EXPERIMENTAL_TARGET>
Escherichia coli TOP10

>  <PARAMETER_MEASURED>
shrunken log2 fold change

>  <MEASURED_VALUE>
0.198

$$$$
>  <SEQUENCE_ENTRY>
RRIRKRPPRLPRPRPRPVMGPRP

>  <EXPERIMENTAL_TARGET>
Escherichia coli TOP10

>  <PARAMETER_MEASURED>
shrunken log2 fold change

>  <MEASURED_VALUE>
0.155

$$$$
>  <SEQUENCE_ENTRY>
RRIRYRPPRLPRPRPRPPPMPRP

>  <EXPERIMENTAL_TARGET>
Escherichia coli TOP10

>  <PARAMETER_MEASURED>
shrunken log2 fold change

>  <MEASURED_VALUE>
0.46

$$$$
>  <SEQUENCE_ENTRY>
RRIRSRPPRLPRPRPRPNDDPRP

>  <EXPERIMENTAL_TARGET>
Escherichia coli TOP10

>  <PARAMETER_MEASURED>
shrunken log2 fold change

>  <MEASURED_VALUE>
0.0402

$$$$
>  <SEQUENCE_ENTRY>
RRIRFRPPRLPRPRPRPPQDPRP

>  <EXPERIMENTAL_TARGET>
Escherichia coli TOP10

>  <PARAMETER_MEASURED>
shrunken log2 fold change

>  <MEASURED_VALUE>
0.303

$$$$
>  <SEQUENCE_ENTRY>
RRIRGRPPRLPRPRPRPDMPPRP

>  <EXPERIMENTAL_TARGET>
Escherichia coli TOP10

>  <PARAMETER_MEASURED>
shrunken log2 fold change

>  <MEASURED_VALUE>
0.168

$$$$
>  <SEQUENCE_ENTRY>
RRIRFRPPRLPRPRPRPRDSPRP

>  <EXPERIMENTAL_TARGET>
Escherichia coli TOP10

>  <PARAMETER_MEASURED>
shrunken log2 fold change

>  <MEASURED_VALUE>
-0.051

$$$$
>  <SEQUENCE_ENTRY>
RRIRERPPRLPRPRPRPVQLPRP

>  <EXPERIMENTAL_TARGET>
Escherichia coli TOP10

>  <PARAMETER_MEASURED>
shrunken log2 fold change

>  <MEASURED_VALUE>
-0.329

$$$$
>  <SEQUENCE_ENTRY>
RRIRMRPPRLPRPRPRPKCMPRP

>  <EXPERIMENTAL_TARGET>
Escherichia coli TOP10

>  <PARAMETER_MEASURED>
shrunken log2 fold change

>  <MEASURED_VALUE>
0.745

$$$$
>  <SEQUENCE_ENTRY>
RRIRERPPRLPRPRPRPFCYPRP

>  <EXPERIMENTAL_TARGET>
Escherichia coli TOP10

>  <PARAMETER_MEASURED>
shrunken log2 fold change

>  <MEASURED_VALUE>
-0.927

$$$$
>  <SEQUENCE_ENTRY>
RRIRRRPPRLPRPRPRPEINPRP

>  <EXPERIMENTAL_TARGET>
Escherichia coli TOP10

>  <PARAMETER_MEASURED>
shrunken log2 fold change

>  <MEASURED_VALUE>
-0.0385

$$$$
>  <SEQUENCE_ENTRY>
RRIRSRPPRLPRPRPRPIYCPRP

>  <EXPERIMENTAL_TARGET>
Escherichia coli TOP10

>  <PARAMETER_MEASURED>
shrunken log2 fold change

>  <MEASURED_VALUE>
-0.876

$$$$
>  <SEQUENCE_ENTRY>
RRIRHRPPRLPRPRPRPSHRPRP

>  <EXPERIMENTAL_TARGET>
Escherichia coli TOP10

>  <PARAMETER_MEASURED>
shrunken log2 fold change

>  <MEASURED_VALUE>
-0.548

$$$$
>  <SEQUENCE_ENTRY>
RRIRSRPPRLPRPRPRPAWFPRP

>  <EXPERIMENTAL_TARGET>
Escherichia coli TOP10

>  <PARAMETER_MEASURED>
shrunken log2 fold change

>  <MEASURED_VALUE>
0.171

$$$$
>  <SEQUENCE_ENTRY>
RRIRYRPPRLPRPRPRPKDKPRP

>  <EXPERIMENTAL_TARGET>
Escherichia coli TOP10

>  <PARAMETER_MEASURED>
shrunken log2 fold change

>  <MEASURED_VALUE>
-0.536

$$$$
>  <SEQUENCE_ENTRY>
RRIRYRPPRLPRPRPRPIHFPRP

>  <EXPERIMENTAL_TARGET>
Escherichia coli TOP10

>  <PARAMETER_MEASURED>
shrunken log2 fold change

>  <MEASURED_VALUE>
-0.679

$$$$
>  <SEQUENCE_ENTRY>
RRIRKRPPRLPRPRPRPFSAPRP

>  <EXPERIMENTAL_TARGET>
Escherichia coli TOP10

>  <PARAMETER_MEASURED>
shrunken log2 fold change

>  <MEASURED_VALUE>
-0.12

$$$$
>  <SEQUENCE_ENTRY>
RRIRRRPPRLPRPRPRPHPSPRP

>  <EXPERIMENTAL_TARGET>
Escherichia coli TOP10

>  <PARAMETER_MEASURED>
shrunken log2 fold change

>  <MEASURED_VALUE>
-0.0167

$$$$
>  <SEQUENCE_ENTRY>
RRIRSRPPRLPRPRPRPWRRPRP

>  <EXPERIMENTAL_TARGET>
Escherichia coli TOP10

>  <PARAMETER_MEASURED>
shrunken log2 fold change

>  <MEASURED_VALUE>
0.0927

$$$$
>  <SEQUENCE_ENTRY>
RRIRDRPPRLPRPRPRPRRPPRP

>  <EXPERIMENTAL_TARGET>
Escherichia coli TOP10

>  <PARAMETER_MEASURED>
shrunken log2 fold change

>  <MEASURED_VALUE>
0.652

$$$$
>  <SEQUENCE_ENTRY>
RRIRWRPPRLPRPRPRPLNLPRP

>  <EXPERIMENTAL_TARGET>
Escherichia coli TOP10

>  <PARAMETER_MEASURED>
shrunken log2 fold change

>  <MEASURED_VALUE>
-0.184

$$$$
>  <SEQUENCE_ENTRY>
RRIRMRPPRLPRPRPRPPWGPRP

>  <EXPERIMENTAL_TARGET>
Escherichia coli TOP10

>  <PARAMETER_MEASURED>
shrunken log2 fold change

>  <MEASURED_VALUE>
0.686

$$$$
>  <SEQUENCE_ENTRY>
RRIRYRPPRLPRPRPRPQHQPRP

>  <EXPERIMENTAL_TARGET>
Escherichia coli TOP10

>  <PARAMETER_MEASURED>
shrunken log2 fold change

>  <MEASURED_VALUE>
-0.304

$$$$
>  <SEQUENCE_ENTRY>
RRIRVRPPRLPRPRPRPRDCPRP

>  <EXPERIMENTAL_TARGET>
Escherichia coli TOP10

>  <PARAMETER_MEASURED>
shrunken log2 fold change

>  <MEASURED_VALUE>
2.64

$$$$
>  <SEQUENCE_ENTRY>
RRIRPRPPRLPRPRPRPVTYPRP

>  <EXPERIMENTAL_TARGET>
Escherichia coli TOP10

>  <PARAMETER_MEASURED>
shrunken log2 fold change

>  <MEASURED_VALUE>
-0.0866

$$$$
>  <SEQUENCE_ENTRY>
RRIRFRPPRLPRPRPRPFWPPRP

>  <EXPERIMENTAL_TARGET>
Escherichia coli TOP10

>  <PARAMETER_MEASURED>
shrunken log2 fold change

>  <MEASURED_VALUE>
0.234

$$$$
>  <SEQUENCE_ENTRY>
RRIRSRPPRLPRPRPRPPCKPRP

>  <EXPERIMENTAL_TARGET>
Escherichia coli TOP10

>  <PARAMETER_MEASURED>
shrunken log2 fold change

>  <MEASURED_VALUE>
-0.163

$$$$
>  <SEQUENCE_ENTRY>
RRIRIRPPRLPRPRPRPYDIPRP

>  <EXPERIMENTAL_TARGET>
Escherichia coli TOP10;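 also: peptides expressed intracellularly from a pBAD plasmid library in pooled LB shake-flask culture, induced with 0.3% L-arabinose, DNA abundance read by NGS, three biological replicates, DESeq2 with apeglm shrinkage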

>  <PARAMETER_MEASURED>
shrunken log2 fold change

>  <MEASURED_VALUE>
-0.0903

$$$$
